B1: glmS ribozyme (parent)
chain: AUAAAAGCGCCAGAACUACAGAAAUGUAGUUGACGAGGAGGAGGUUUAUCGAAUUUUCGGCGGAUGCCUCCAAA

variants of: B1; test: self-cleavage kobs at 640 uM GlcN6P; higher = faster cleavage; RNA array; details: with glucosamine-6-phosphate
This sample holds only a part of the variants without activity.
Recorded self-cleavage kobs at 640 uM GlcN6P values for a group of variants are listed next.
READOUT_LABEL: self-cleavage kobs at 640 uM GlcN6P

{"columns": ["CONSTRUCT_SEQUENCE", "READOUT_LABEL", "VALUE_OBSERVED"],
 "data": [
  ["AUAAAAGCGCCAGAACUACAGAAAUGUAGUUGACGAGGAUGAGGUUUAUCGAAUUUUCGGCGGAUGCCUGCAAA [G40U C70G]", "self-cleavage kobs at 640 uM GlcN6P", "0.000121 s⁻¹"],
  ["AUAAAAGCGCCAGAACUACAGAAAUGUAGUUGUCGAGGAGGUGCUUUAUCGAAUUUUCGGCGGAUGCCUCCAAA [A33U A42U G44C]", "self-cleavage kobs at 640 uM GlcN6P", "< 1e-05 s⁻¹"],
  ["AUAAAAGCGCCAGAACUACAGAAAUGUAGCUGACGAGGAGGAGGUUUAUCAAAUUUUCGGCGGAGGCCUCCAAA [U30C G51A U65G]", "self-cleavage kobs at 640 uM GlcN6P", "< 1e-05 s⁻¹"],
  ["AUAAAAGCGCCAGAACUACAGAAAUGUAGUUUACGAGGAGGAGGUUUAUCGAAUUUUCGGCAGAUGACUCCAAA [G32U G62A C67A]", "self-cleavage kobs at 640 uM GlcN6P", "< 1e-05 s⁻¹"],
  ["AUAAAAGCGCCAGAACUACAGAAAUGUACUUGACGUGGAGGAGGUUUAUCGAAUUUUCGGCGGAUGCCUCCAAA [G29C A36U]", "self-cleavage kobs at 640 uM GlcN6P", "< 1e-05 s⁻¹"],
  ["AUAAAAGCGCCAAAAAUACAGAAAUGUAGUUGACGAGGAGGAGGUUUAUCGAAUUUUCGGCGGAUGCGUCCAAA [G13A C16A C68G]", "self-cleavage kobs at 640 uM GlcN6P", "7.67e-05 s⁻¹"],
  ["AUAAAAGCGCCAGAACUACAGAAAUGUAGUUGACCAGGAGGAGGUUUAUCGAGUUUUCGGCGGAUGCCUCCAAA [G35C A53G]", "self-cleavage kobs at 640 uM GlcN6P", "< 1e-05 s⁻¹"],
  ["AUAAAAGCGCCAGAACUACAGAAAUGUAGUUGACGAGGAGGAUGUUUAUCGAAUUUUCGGCGGAUUCCUCGAAA [G43U G66U C71G]", "self-cleavage kobs at 640 uM GlcN6P", "< 1e-05 s⁻¹"],
  ["AUAAAAGCGCCAGAACUACAGAAAUGUAGUUGACGAGGACGAGGUUUAUCGAAUUUUCGGCGGAUGGCUGCAAA [G40C C67G C70G]", "self-cleavage kobs at 640 uM GlcN6P", "< 1e-05 s⁻¹"],
  ["AUAAAAGCGCCAGAACUACAGAAAUGUAGUUGACGAGGAGGAGGUUUAUCGAAUUGUCGGCGGAGGCCUCCAAA [U56G U65G]", "self-cleavage kobs at 640 uM GlcN6P", "0.000301 s⁻¹"],
  ["AUAAAAGCGCGAGAACUACAGAAAUGUAUUUGACGAGGAGGAGGUUUAUCGAAUUUUCGGCGGAUGCCGCCAAA [C11G G29U U69G]", "self-cleavage kobs at 640 uM GlcN6P", "0.000133 s⁻¹"],
  ["AUAAAAACGCCAGAACUACAGAAAUGUAGUUGACGGGGAGGAGGUUUAUCGAAUUUUCGGCGGAUGCCUCCAAA [G7A A36G]", "self-cleavage kobs at 640 uM GlcN6P", "< 1e-05 s⁻¹"],
  ["AUAAAAGCGCCAGAAUUACAGAAAUGUAGUUGACGAGGAGGAGGUUUAUCGAAUUUUCCGCGGAGGCCUCCAAA [C16U G59C U65G]", "self-cleavage kobs at 640 uM GlcN6P", "< 1e-05 s⁻¹"],
  ["AUAAAAGCGCCAGAACUACAGAAAUGUAGUUGACGAGGAGGAGGUUUAUCGAAUGUUCGGCGUAUGCCUCCAAA [U55G G63U]", "self-cleavage kobs at 640 uM GlcN6P", "< 1e-05 s⁻¹"]
]}
